Target: type B (B/Memphis/3/89) neuraminidase (Influenza B virus (B/Memphis/3/89), UniProt P16199)
Sequence (P16199 whole entry, looked up): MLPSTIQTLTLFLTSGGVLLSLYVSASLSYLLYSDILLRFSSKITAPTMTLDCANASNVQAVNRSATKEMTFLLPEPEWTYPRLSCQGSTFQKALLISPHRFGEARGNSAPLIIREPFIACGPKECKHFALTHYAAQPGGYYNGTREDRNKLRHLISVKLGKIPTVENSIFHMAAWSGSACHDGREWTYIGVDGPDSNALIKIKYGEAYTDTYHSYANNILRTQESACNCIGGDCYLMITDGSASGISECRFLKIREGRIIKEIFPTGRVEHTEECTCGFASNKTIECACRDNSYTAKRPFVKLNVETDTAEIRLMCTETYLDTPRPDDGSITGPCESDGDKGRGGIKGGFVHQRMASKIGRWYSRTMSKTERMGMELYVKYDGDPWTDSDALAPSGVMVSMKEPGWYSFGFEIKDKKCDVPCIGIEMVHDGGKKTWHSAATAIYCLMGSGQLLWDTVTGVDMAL
Type: biochemical
Conditions: read-out: IC50, Fetuin substrate, B/Mem/89
observable: pIC50
Answers are plain numbers, as −log10 of the molar value.

Known pIC50 results, listed for orientation:
CC(=O)Nc1c(OC(C)=O)cc(C(=O)O)cc1[N+](=O)[O-]
2.30
CC(=O)Nc1ccc(C(=O)O)cc1NC(=O)CN
2.30

Please look at the items below and tell me pIC50 for each one, in order.
1. CC(=O)Nc1c(O)cc(C(=O)O)cc1[N+](=O)[O-]
2. CC(=O)Nc1ccc(C(=O)O)cc1OC(C)=O

1. 3.00
2. 2.30

* * *

Biological target: type B (B/Memphis/3/89) neuraminidase (Influenza B virus (B/Memphis/3/89), UniProt P16199)
Assay type: biochemical
Conditions: read-out: IC50, MUN substrate, B/Mem/89; pH 6
observable: IC50 (mM)
Numbers only, in mM.

Known IC50 results, listed for orientation:
CC(=O)Nc1cc([N+](=O)[O-])c(C(=O)O)c([N+](=O)[O-])c1O
1
CC(=O)Nc1ccc(C(=O)O)cc1NC(=O)C(O)CO (centres unmarked)
8
CC(=O)Nc1c(O)cc(C(=O)O)cc1[N+](=O)[O-]
0.75

Next:
State its IC50 for this compound: CC(=O)Nc1c(N)cc(C(=O)O)cc1O.Cl [Compound 106, hydrochloride] 10

* * *

Biological target: type B (B/Memphis/3/89) neuraminidase (Influenza B virus (B/Memphis/3/89), UniProt P16199)
Format: biochemical
Details: read-out: IC50, Fetuin substrate, B/Mem/89
observable: pIC50
Numbers only, as −log10 of the molar value.

Known pIC50 results, listed for orientation:
CC(=O)Nc1ccc(C(=O)O)cc1NC(=O)CO [Compound 109]
2.00
CC(=O)Nc1ccc(C(=O)O)cc1O [Compound 101, 4-(acetylamino)-3-hydroxybenzoic acid]
2.00

Please look at the items below and tell me pIC50 for each one, in order.
1. CC(=O)Nc1cc([N+](=O)[O-])c(C(=O)O)c([N+](=O)[O-])c1O [Compound 103]
2. CC(=O)N[C@H]1[C@H]([C@H](O)[C@H](O)CO)OC(C(=O)O)=C[C@@H]1O [DANA, reference compound]

1: 2.40; 2: 4.82

* * *

Target: N2 (A/Tokyo/67) neuraminidase (Influenza A virus)
Assay: biochemical
Design: species or system influenza A virus (A/Tokyo/67)
observable: pIC50
Give bare numbers, as −log10 of the molar value.

Known pIC50 results, listed for orientation:
CC(=O)Nc1ccc(C(=O)O)cc1O [Compound 101, 4-(acetylamino)-3-hydroxybenzoic acid]
2.00
CC(=O)Nc1ccc(C(=O)O)cc1OC(C)=O
2.00
CC(=O)N[C@H]1[C@H]([C@H](O)[C@H](O)CO)OC(C(=O)O)=C[C@@H]1O [DANA, reference compound]
4.82

State its pIC50 for this molecule: "CC(=O)Nc1ccc(C(=O)O)cc1[N+](=O)[O-]" 2.30

* * *

Biological target: N2 (A/Tokyo/67) neuraminidase (Influenza A virus, UniProt P06820)
Sequence (P06820 whole entry, looked up): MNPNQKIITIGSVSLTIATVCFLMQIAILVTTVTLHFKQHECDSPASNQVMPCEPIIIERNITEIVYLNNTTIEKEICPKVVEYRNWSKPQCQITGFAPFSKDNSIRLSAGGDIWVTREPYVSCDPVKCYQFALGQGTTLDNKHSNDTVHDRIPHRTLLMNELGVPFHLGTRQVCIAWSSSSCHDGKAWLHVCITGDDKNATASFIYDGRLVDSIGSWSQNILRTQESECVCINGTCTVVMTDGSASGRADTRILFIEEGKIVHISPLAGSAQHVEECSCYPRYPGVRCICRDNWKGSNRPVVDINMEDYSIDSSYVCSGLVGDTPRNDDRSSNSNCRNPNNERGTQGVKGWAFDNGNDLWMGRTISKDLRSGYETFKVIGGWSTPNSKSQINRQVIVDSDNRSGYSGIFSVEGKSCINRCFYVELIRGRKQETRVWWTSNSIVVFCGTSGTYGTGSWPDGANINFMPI
Experiment: biochemical
Set-up: species or system influenza A virus (A/Tokyo/67)
observable: IC50 (mM)
Numbers only, in mM.

Known IC50 results, listed for orientation:
CC(=O)Nc1ccc(C(=O)O)cc1NC(=O)CO [Compound 109]
4
CC(=O)Nc1ccc(C(=O)O)cc1NC(=O)CN [Compound 111]
5
CC(=O)Nc1ccc(C(=O)O)cc1[N+](=O)[O-] [Compound 107]
5

Next:
Specify IC50 for CC(=O)N[C@H]1[C@H]([C@H](O)[C@H](O)CO)OC(C(=O)O)=C[C@@H]1O [DANA, reference compound] , system N2 (A/Tokyo/67) neuraminidase (Influenza A virus, UniProt P06820). 0.015
